Just for reference, PubChem BioAssay (NCI) is where these values come from.

# Tested on: M14 melanoma
# assay_protocol: NCI-60 one-dose screen, 48 h (100 = growth as untreated, 0 = no growth, -100 = all killed)
# run_parameters: 10 µM
Compounds without any hit were thinned out: in the full panel of roughly 83,000, 20% have a hit.
Measured growth of individual entries
measurement_kind: growth (%)

INSERT INTO measurements (molecule, test_system, measurement_kind, quantitative_readout) VALUES
  ('COC1[C@@H]2C[C@H]3C(C)(C)O[C@@](C/C=C(/C)C(=O)O)(C2=O)[C@]32Oc3c(CC=C(C)C)c4c(c(O)c3C(=O)[C@H]12)C=CC(C)(C)O4 (some centres undefined)', 'M14 melanoma', 'growth', -53.9),
  ('C[C@@H]1C[C@H]2C(=O)O[C@@H](C)C(NC(=O)[C@H](Cc3cc(F)cc(F)c3)NC(=O)Nc3ccc(OS(=O)(=O)F)cc3)C(=O)N3CCC[C@H]3C(=O)N3CCO[C@H](C)[C@H]3C(=O)N[C@@H](CO)C(=O)N2C1 (some centres undefined)', 'M14 melanoma', 'growth', 23.6),
  ('CC1=C(CCC=NNC(N)=O)C2=C(C)C3(CC3)[C@@](C)(O)C(=O)C2=C1', 'M14 melanoma', 'growth', -84.4),
  ('C[C@@H]1CCC/C=C/[C@H]2C[C@@H](O)C[C@@H]2[C@@H](O)/C=C/C(=O)O1', 'M14 melanoma', 'growth', 6.74),
  ('COc1cc2c(O[C@@H]3OC[C@H](OC(C)=O)[C@H](OC(C)=O)[C@H]3O)c3c(c(-c4ccc5c(c4)OCO5)c2cc1OC)C(=O)OC3', 'M14 melanoma', 'growth', -17.9),
  ('CCC(C)[C@H]1C(=O)O[C@H](C(C)C)C(=O)N(C)[C@@H](C(C)C)C(=O)O[C@H](C(C)C)C(=O)N(C)[C@@H](C(C)C)C(=O)O[C@H](C(C)C)C(=O)N1C (some centres undefined)', 'M14 melanoma', 'growth', 21.2),
  ('COC(=O)[C@H]1[C@@H](O)[C@@]2(O)c3c(OC)cc(OC)cc3O[C@@]2(c2ccc(OC)cc2)[C@@H]1c1ccccc1', 'M14 melanoma', 'growth', -1.79),
  ('COc1cc2c(O[C@@H]3OC[C@H](O)[C@H](O)[C@H]3O)c3c(c(-c4ccc5c(c4)OCO5)c2cc1OC)C(=O)OC3', 'M14 melanoma', 'growth', 31.3),
  ('CC1=C(CN(O)C(N)=O)C2=C(C)C3(CC3)[C@](C)(O)C(=O)C2=C1', 'M14 melanoma', 'growth', -55.4),
  ('CN(CCF)/N=N/c1nc[nH]c1C(N)=O', 'M14 melanoma', 'growth', 23.3),
  ('COc1cccc2c1cc([N+](=O)[O-])c1c(C(=O)O)cc3c(c12)OCO3', 'M14 melanoma', 'growth', 103),
  ('CC1=C2C(=C[C@@](C)(COC(=O)c3ccc(S(=O)(=O)F)cc3)[C@@H]2OC(=O)c2ccc(S(=O)(=O)F)cc2)C(=O)[C@](C)(O)C12CC2', 'M14 melanoma', 'growth', -46.3),
  ('CN1C(=O)[C@]23SSC1(C)C(=O)N2[C@H]1Nc2ccccc2C1([C@@]12c4ccccc4N[C@@H]1N1C(=O)C4(C)SS[C@]1(C(=O)N4C)[C@H]2O)[C@@H]3O (some centres undefined)', 'M14 melanoma', 'growth', -90),
  ('CC1=C[C@H]2O[C@@H]3C[C@H]4OC(=O)/C=C\C=C\[C@H]([C@@H](C)O)OCC/C(C)=C/C(=O)OC[C@@]2(CC1)[C@]4(C)[C@]31CO1', 'M14 melanoma', 'growth', -73.7);
